tested target: S. aureus SPase (Staphylococcus aureus, UniProt P0A070)
Construct: Full length His-tagged S. aureus SPase protein was expressed similarly; His-tag; made in house; host or cells: E. coli BL21(DE3)
experiment: Enzymatic fluorogenic substrate cleavage assay for IC50
Assay type: biochemical
Description: Full length His-tagged E. coli SPase proteins were expressed in E. coli BL21(DE3) containing the plasmid pET23-lepB, P. A. Smith et al. Chem Biol 2010, 1223-1231. Briefly, saturated overnight cultures grown in 20 ml of Luria-Bertani medium supplemented with ampicillin were subcultures into 1.5 L of Luria-Bertani, and shaken at 37° C. until an optical density at 600 nm of 0.4-0.5 was achieved. […] All protein concentrations were determined by BCA assay. […]
Provide the recorded IC50 for the entries that follow.

Q. Hi! What's the reported IC50 for CCCCCCCCCCCCCCNC(=O)N(C)[C@H](CO)C(=O)N[C@H](C)C(=O)NCC(=O)N(C)[C@@H]1C(=O)N[C@@H](C)C(=O)N[C@H](C(=O)O)Cc2ccc(O)c(c2)-c2cc1ccc2O on S. aureus SPase (Staphylococcus aureus, UniProt P0A070)?
A. < 1 µM

Q. # query: IC50 | item CCCCCCCCCCCCC(=O)N(C)[C@H](CO)C(=O)N[C@H](C)C(=O)NCC(=O)N(C)[C@@H]1C(=O)N[C@@H](C)C(=O)N[C@H](C(=O)O)Cc2ccc(O)c(c2)-c2cc1ccc2O | system: S. aureus SPase (Staphylococcus aureus, UniProt P0A070)
A. < 1 µM

Q. Please tell me: IC50 of CCCCCCCCCCCCCCCC(=O)N(C)[C@H](CO)C(=O)N[C@H](C)C(=O)NCC(=O)N(C)[C@@H]1C(=O)N[C@@H](C)C(=O)N[C@H](C(=O)NC(CO)(CO)CO)Cc2ccc(O)c(c2)-c2cc1ccc2O , system S. aureus SPase (Staphylococcus aureus, UniProt P0A070)?
A. > 10 µM

Q. Reported IC50 for S. aureus SPase (Staphylococcus aureus, UniProt P0A070), given CCCCCCCCCCCCCCCC(=O)N(C)[C@H](CO)C(=O)N[C@H](C)C(=O)NCC(=O)N(C)[C@@H]1C(=O)N[C@@H](C)C(=O)N[C@H](C(=O)NC(CO)CO)Cc2ccc(O)c(c2)-c2cc1ccc2O ?
A. > 10 µM

Q. Please state recorded IC50 (tested on S. aureus SPase (Staphylococcus aureus, UniProt P0A070)) of CCCCCCCCCCCCCCCC(=O)N(C)C(CO)C(=O)N[C@H](C)C(=O)NCC(=O)N(C)[C@@H]1C(=O)N[C@@H](C)C(=O)NC(C(=O)NCC(O)CO)Cc2ccc(O)c(c2)-c2cc1ccc2O (some centres unmarked)
A. > 10 µM

----------
Provide the recorded IC50 for the entries that follow.
tested target: E. coli SPase (Escherichia coli, UniProt P00803)
Construct: Full length His-tagged E. coli SPase proteins were expressed in E. coli BL21(DE3); His-tag; made in house; host or cells: E. coli BL21(DE3)
Sequence (P00803 whole entry): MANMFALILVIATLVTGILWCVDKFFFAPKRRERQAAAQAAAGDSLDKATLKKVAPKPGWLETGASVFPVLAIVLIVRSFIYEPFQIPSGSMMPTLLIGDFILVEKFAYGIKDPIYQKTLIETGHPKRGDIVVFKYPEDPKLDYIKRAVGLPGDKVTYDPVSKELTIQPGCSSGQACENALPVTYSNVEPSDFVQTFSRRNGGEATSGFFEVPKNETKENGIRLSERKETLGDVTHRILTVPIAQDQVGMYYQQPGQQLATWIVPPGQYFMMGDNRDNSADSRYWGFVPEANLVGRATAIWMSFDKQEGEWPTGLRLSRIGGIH
experiment: Enzymatic fluorogenic substrate cleavage assay for IC50
Format: biochemical

Q. Hello, I am looking for reported IC50 with E. coli SPase (Escherichia coli, UniProt P00803) for CCCCCCCCCCCCCCCC(=O)N(C)[C@H](CO)C(=O)N[C@H](C)C(=O)NCC(=O)N(C)[C@@H]1C(=O)N[C@@H](C)C(=O)N[C@H](C(=O)NCC(=O)NS(C)(=O)=O)Cc2ccc(O)c(c2)-c2cc1ccc2O . Could you help?
A. < 1 µM

Q. Requested read-out IC50, target or system E. coli SPase (Escherichia coli, UniProt P00803), entry CCCCCCCCCCCCCCCC(=O)N(C)[C@H](CO)C(=O)N[C@H](C)C(=O)NCC(=O)N(C)[C@@H]1C(=O)N[C@@H](C)C(=O)N[C@H](C(=O)NC[C@@H](C)O)Cc2ccc(O)c(c2)-c2cc1ccc2O
A. < 1 µM

----------
Answer each item with its documented MIC.
Test system: E. coli MIG1655 LepB(P84L)
experiment: In vitro antimicrobial activity, MIC by broth micro-dilution
Format: cell-based
condition info: Escherichia coli
Give the quantity in µg/mL, number only.

Q. Test system E. coli MIG1655 LepB(P84L); read-out MIC; what value for CCCCCCCCCCCCCCCC(=O)N(C)[C@H](CO)C(=O)N[C@H](C)C(=O)NCC(=O)N(C)[C@@H]1C(=O)N[C@@H](C)C(=O)N[C@H](C(=O)N[C@@H](C)C(N)=O)Cc2ccc(O)c(c2)-c2cc1ccc2O [Compound 15] ?
A. 8

Q. Form field - read-out: MIC; system: E. coli MIG1655 LepB(P84L); submitted item: CCCCCCCCCCCCCCCC(=O)N(C)[C@H](CO)C(=O)N[C@H](C)C(=O)NCC(=O)N(C)[C@@H]1C(=O)N[C@@H](C)C(=O)N[C@H](C(=O)O)Cc2ccc(O)c(c2)-c2cc1ccc2O [Compound 1, arylomycin C16]
A. 1

----------
System: E. coli MIG1655 LepB(P84L)
experiment: In vitro antimicrobial activity, MIC by broth micro-dilution
Assay type: cell-based
condition info: Escherichia coli
value kind: MIC (µg/mL)
Give the value, in units of µg/mL, as a plain number.

Q. Data request, read-out MIC, for CCCCCCCCCCCCCCCC(=O)N(C)[C@H](CO)C(=O)N[C@H](C)C(=O)NCC(=O)N(C)[C@@H]1C(=O)N[C@@H](C)C(=O)N[C@H](C(N)=O)Cc2ccc(O)c(c2)-c2cc1ccc2O
A. 4

Q. I'd like to know its MIC. The molecule in question is CCCCCCCCCCCCCCCC(=O)N(C)[C@H](CO)C(=O)N[C@H](C)C(=O)NCC(=O)N(C)[C@@H]1C(=O)N[C@@H](C)C(=O)N[C@H](C(=O)N[C@H](C)C(=O)O)Cc2ccc(O)c(c2)-c2cc1ccc2O
A. 8

Q. Look at this molecule and give its reported MIC. CCCCCCCCCCCCCCCC(=O)N(C)[C@H](CO)C(=O)N[C@H](C)C(=O)NCC(=O)N(C)[C@@H]1C(=O)N[C@@H](C)C(=O)N[C@H](C(=O)N[C@@H](C)C(=O)O)Cc2ccc(O)c(c2)-c2cc1ccc2O
A. 32

Q. Sample CCCCCCCCCCCCCCCC(=O)N(C)[C@H](CO)C(=O)N[C@H](C)C(=O)NCC(=O)N(C)[C@@H]1C(=O)N[C@@H](C)C(=O)N[C@H](C(=O)NCC(=O)O)Cc2ccc(O)c(c2)-c2cc1ccc2O — what was its MIC?
A. 4

Q. Tell me the measured MIC of CCCCCCCCCCCCCCCC(=O)N(C)[C@H](CO)C(=O)N[C@H](C)C(=O)NCC(=O)N(C)[C@@H]1C(=O)N[C@@H](C)C(=O)N[C@H](C(=O)N(C)C)Cc2ccc(O)c(c2)-c2cc1ccc2O , please.
A. 16

Q. Any idea what its MIC is? The molecule is CCCCCCCCCCCCCCCC(=O)N(C)[C@H](CO)C(=O)N[C@H](C)C(=O)NCC(=O)N(C)[C@@H]1C(=O)N[C@@H](C)C(=O)N[C@H](C(=O)N[C@@H](C)C(=O)N2CCC[C@H]2C(=O)O)Cc2ccc(O)c(c2)-c2cc1ccc2O
A. 8

----------
So I've got a bunch of compounds here, and I need their MIC values.
Test system: S. epidermidis RP62A SpsIB(S29P)
experiment: In vitro antimicrobial activity, MIC by broth micro-dilution
Format: cell-based
condition info: Staphylococcus epidermidis

Q. Record request: MIC value, item CCCCCCCCCCCCCCCC(=O)N(C)[C@H](CO)C(=O)N[C@H](C)C(=O)NCC(=O)N(C)[C@@H]1C(=O)N[C@@H](C)C(=O)N[C@H](C(=O)NCC(=O)N2CCCC2C(N)=O)Cc2ccc(O)c(c2)-c2cc1ccc2O (some centres unmarked) [Compound 27]
A. > 64 µg/mL

Q. What does the data say about its MIC? Entry: CCCCCCCCCCCCCCCC(=O)N(C)[C@H](CO)C(=O)N[C@H](C)C(=O)NCC(=O)N(C)[C@@H]1C(=O)N[C@@H](C)C(=O)N[C@H](C(=O)NCC(=O)N2CCC[C@H]2C(=O)O)Cc2ccc(O)c(c2)-c2cc1ccc2O [Compound 31]
A. > 64 µg/mL

Q. Find the recorded MIC belonging to CCCCCCCCCCCCCCCC(=O)N(C)[C@H](CO)C(=O)N[C@H](C)C(=O)NCC(=O)N(C)[C@@H]1C(=O)N[C@@H](C)C(=O)N[C@H](C(=O)N(C)C)Cc2ccc(O)c(c2)-c2cc1ccc2O [Compound 13] and report it.
A. > 64 µg/mL

Q. # lookup: MIC of CCCCCCCCCCCCCCCC(=O)N(C)[C@H](CO)C(=O)N[C@H](C)C(=O)NCC(=O)N(C)[C@@H]1C(=O)N[C@@H](C)C(=O)N[C@H](C(=O)NC(C)C=O)Cc2ccc(O)c(c2)-c2cc1ccc2O (some centres unmarked) [Compound 33]
A. 64 µg/mL

Q. I am curious: what MIC value has been reported for CCCCCCCCCCCCCCCC(=O)N(C)[C@H](CO)C(=O)N[C@H](C)C(=O)NCC(=O)N(C)[C@@H]1C(=O)N[C@@H](C)C(=O)N[C@H](C(=O)N[C@@H](C)C(N)=O)Cc2ccc(O)c(c2)-c2cc1ccc2O [Compound 15] ?
A. > 64 µg/mL

Q. State the recorded MIC for this entry: CCCCCCCCCCCCCCCC(=O)N(C)[C@H](CO)C(=O)N[C@H](C)C(=O)NCC(=O)N(C)[C@@H]1C(=O)N[C@@H](C)C(=O)N[C@H](C(=O)N[C@@H](C)C(=O)O)Cc2ccc(O)c(c2)-c2cc1ccc2O [Compound 20]
A. 32 µg/mL

Q. What does the data say about its MIC? Entry: CCCCCCCCCCCCCCCC(=O)N(C)[C@H](CO)C(=O)N[C@H](C)C(=O)NCC(=O)N(C)[C@@H]1C(=O)N[C@@H](C)C(=O)N[C@H](C(=O)NC)Cc2ccc(O)c(c2)-c2cc1ccc2O [Compound 12]
A. 64 µg/mL

Q. So what's the measured MIC for this one? CCCCCCCCCCCCCCCC(=O)N(C)[C@H](CO)C(=O)N[C@H](C)C(=O)NCC(=O)N(C)[C@@H]1C(=O)N[C@@H](C)C(=O)N[C@H](C(=O)NS(C)(=O)=O)Cc2ccc(O)c(c2)-c2cc1ccc2O [Compound 22]
A. > 64 µg/mL
